- System: human TLR8 (Homo sapiens)
- Sequence (Q9NR97 27-1041): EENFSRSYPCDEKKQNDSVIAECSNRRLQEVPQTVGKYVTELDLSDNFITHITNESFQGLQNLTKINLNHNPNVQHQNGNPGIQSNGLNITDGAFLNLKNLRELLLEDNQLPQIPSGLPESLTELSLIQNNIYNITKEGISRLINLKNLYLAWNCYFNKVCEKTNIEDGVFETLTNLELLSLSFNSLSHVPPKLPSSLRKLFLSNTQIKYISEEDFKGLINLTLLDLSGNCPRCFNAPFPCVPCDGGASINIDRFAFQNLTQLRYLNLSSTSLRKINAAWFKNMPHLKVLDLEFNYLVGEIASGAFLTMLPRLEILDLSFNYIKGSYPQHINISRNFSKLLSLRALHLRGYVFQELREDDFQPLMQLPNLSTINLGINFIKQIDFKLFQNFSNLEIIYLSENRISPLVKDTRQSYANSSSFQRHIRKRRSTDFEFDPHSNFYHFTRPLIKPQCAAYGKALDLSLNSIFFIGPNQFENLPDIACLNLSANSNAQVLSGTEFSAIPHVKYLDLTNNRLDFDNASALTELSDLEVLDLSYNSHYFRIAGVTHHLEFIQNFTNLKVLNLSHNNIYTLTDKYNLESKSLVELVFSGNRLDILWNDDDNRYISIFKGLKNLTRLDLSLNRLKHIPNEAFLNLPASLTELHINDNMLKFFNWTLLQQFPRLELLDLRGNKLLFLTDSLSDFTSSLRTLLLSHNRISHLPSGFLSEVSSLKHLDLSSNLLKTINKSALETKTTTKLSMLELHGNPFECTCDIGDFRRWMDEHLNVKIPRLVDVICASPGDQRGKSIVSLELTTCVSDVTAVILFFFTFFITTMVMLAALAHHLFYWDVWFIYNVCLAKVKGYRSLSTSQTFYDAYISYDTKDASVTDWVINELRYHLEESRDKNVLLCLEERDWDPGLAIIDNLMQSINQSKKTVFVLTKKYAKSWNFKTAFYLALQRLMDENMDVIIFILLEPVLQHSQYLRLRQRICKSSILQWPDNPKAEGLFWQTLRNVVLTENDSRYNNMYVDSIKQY
- Protocol Description: TLR8 inhibition reporter assay (HEK-Blue SEAP)
- Assay Setup: HEK-Blue cells overexpressing human TLR8, stimulated with R848 15.9 μM, 22 hour incubation
pIC50: −log10 of the molar value.
Listed here are compounds together with their documented pIC50.
Parameter Measured: pIC50

{"columns": ["Compound", "Reported Result"],
 "data": [
  ["CCc1cc2c(C3CCN(C(=O)CCN(C)C)CC3)n[nH]c2cc1-c1cc(C)c2ncnn2c1", 9.05],
  ["Cc1cc2c(C3CCC(NC4COC4)CC3)n[nH]c2cc1-c1cc(C)c2ncnn2c1 (single isomer, unassigned) [Example 34]", 9.70],
  ["CCc1cc2c(C3CCN(Cc4cn(C)nn4)CC3)n[nH]c2cc1-c1cc(C)c2ncnn2c1", 10.00],
  ["Cc1cc(-c2ccc3c(NC4CCNCC4)n[nH]c3c2)cn2ncnc12", 6.83],
  ["Cc1cc2c(C3CCNCC3)n[nH]c2cc1-c1cc(-c2cncnc2)c2ncnn2c1", 8.82],
  ["Cc1cc(-c2cc3[nH]nc(C4CCCNC4)c3cc2C)cc(C)n1 (centres unmarked)", 8.82],
  ["Cc1cc(-c2cc3[nH]nc(C4CCN(CCC#N)CC4)c3cc2C(C)C)cn2ncnc12", 10.00],
  ["Cc1cc(-c2cc3[nH]nc(C4CCC(N5CC(F)(F)C5)CC4)c3cc2C(C)C)cn2ncnc12 (single isomer, unassigned) [Example 135]", 8.03],
  ["Cc1cc(-c2cc3[nH]nc(C4CCC(N5CC(C)(C)C5)CC4)c3cc2C(C)C)cn2ncnc12 (single isomer, unassigned) [Example 136]", 8.41],
  ["Cc1cc2c(C3CCNCC3)n[nH]c2cc1-c1cc(C#N)c2ncnn2c1", 7.80],
  ["Cc1cc(-c2cc3[nH]nc(C4CCN(C5COC5)CC4)c3cc2C(C)C)cn2ncnc12", 8.96],
  ["Cc1cc2c(C3CCCN(C4COC4)C3)n[nH]c2cc1-c1cc(C)c2ncnn2c1 (centres unmarked)", 9.05],
  ["Cc1cc2c(C3CCN(C(=O)CN(C)C)CC3)n[nH]c2cc1-c1cc(C)c2ncnn2c1", 8.42],
  ["Cc1cc(-c2cc3[nH]nc(C4CCC(N5CCCC5)CC4)c3cc2C(C)C)cn2ncnc12 (single isomer, unassigned) [Example 131]", 9.52],
  ["CCc1cc(-c2cc(C)c3ncnn3c2)cc2[nH]nc(OC3CCC(N(C)C)CC3)c12 (single isomer, unassigned) [Example 168]", 8.80],
  ["Cc1cc(-c2ccc3c(C(=O)NC4CCNCC4)n[nH]c3c2)cn2ncnc12", 6.66],
  ["Cc1cc(-c2cc(C)c3ncnn3c2)cc2[nH]nc(OC3CCC(NC4CC4)CC3)c12 (single isomer, unassigned) [Example 189]", 8.09],
  ["COc1cc(-c2cc3[nH]nc(C4CCC(N5CC(OC)C5)CC4)c3cc2C(C)C)cn2ncnc12 (single isomer, unassigned) [Example 147]", 9.70],
  ["Cc1cc2c(C3CCN(C4COC4)CC3)n[nH]c2cc1-c1cc(C)c2ncnn2c1", 8.37],
  ["Cc1cc2c(CC3CCNCC3)n[nH]c2cc1-c1cc(C)c2ncnn2c1", 8.42],
  ["Cc1cc(-c2cc(C)c3ncnn3c2)cc2[nH]nc(C3CCN(C)CC3)c12", 7.27],
  ["CCCN1CCC(c2n[nH]c3cc(-c4cc(C)c5ncnn5c4)c(C(C)C)cc23)CC1", 10.00],
  ["Cc1cc(-c2cc(C)c3ncnn3c2)cc2[nH]nc(OC3CCC(NCC(=O)N(C)C)CC3)c12 (single isomer, unassigned) [Example 185]", 8.02],
  ["Cc1cc(-c2cc(C)c3ncnn3c2)cc2[nH]nc(C3CCCN(CC(=O)N(C)C)C3)c12 (centres unmarked)", 7.36],
  ["Cc1cc(-c2cc(C)c3ncnn3c2)cc2[nH]nc(OC3CCNCC3)c12", 8.85],
  ["CCc1cc2c(OC3CCC(N(C)C)CC3)n[nH]c2cc1-c1cc(C)c2ncnn2c1 (single isomer, unassigned) [Example 191]", 9.30]
]}
